assay: Metabolic stability in dog liver microsomes; format: in vitro ADME, Beagle Dog; settings: Beagle dog liver microsomes, NADPH, 37° C.; read-out: Dog microsome (t1/2)
quantity: half-life (h)

P = Cn1cc(-c2cccc(NC(=O)c3cc4oc(N5CCOCC5)nc4nc3N3CCC(O)CC3)n2)cn1
Q = COC1CCN(c2nc3nc(N4CCOCC4)oc3cc2C(=O)Nc2cccc(-c3cnn(C)c3)n2)CC1
**Query** Of P and Q , which carries the smaller reported half-life figure? Please reply using the label of the selected record.
**Result** Q
(Q: 1.13 h, P: 1.7 h)

---

IC50 listing for selected compounds.
target: UniProt Q9NWZ3; test: Screening the compounds against IRAK4 with ATP (Caliper, FAM-labeled peptide); type: biochemical; conditions: read-out: IC50 (nM) (10 μM ATP)
Sequence (Q9NWZ3 whole entry): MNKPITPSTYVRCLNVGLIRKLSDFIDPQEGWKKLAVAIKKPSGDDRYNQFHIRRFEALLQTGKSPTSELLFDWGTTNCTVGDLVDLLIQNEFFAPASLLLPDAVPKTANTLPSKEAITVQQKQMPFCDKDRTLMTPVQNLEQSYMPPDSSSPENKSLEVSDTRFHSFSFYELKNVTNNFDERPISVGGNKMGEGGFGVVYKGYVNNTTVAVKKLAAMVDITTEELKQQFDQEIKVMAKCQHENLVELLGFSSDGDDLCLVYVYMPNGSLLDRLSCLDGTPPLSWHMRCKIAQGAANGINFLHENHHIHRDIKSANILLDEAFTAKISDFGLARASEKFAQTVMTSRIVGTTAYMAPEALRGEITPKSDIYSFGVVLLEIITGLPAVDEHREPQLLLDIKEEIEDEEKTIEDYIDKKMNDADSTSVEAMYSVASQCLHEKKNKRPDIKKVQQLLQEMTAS
Where a name gives a salt, the structure may show the parent alone.
Entry rule: numbers only, all in nM.

Worked examples follow.
{"compound": "CC1(C)Cc2cc(C(=O)Nc3cccn(C4CC4)c3=O)c(N3CCC(O)CC3)nc2O1", "target_desc": "UniProt Q9NWZ3", "unit_string": "nM", "result_number": 479}
{"compound": "COC1CCN(c2nc3nc(N4CCNCC4)oc3cc2C(=O)Nc2cccc(-c3cnn(C)c3)n2)CC1 [Compound A51, Hydrochloride]", "target_desc": "UniProt Q9NWZ3", "unit_string": "nM", "result_number": 7}
{"compound": "COC1CCN(c2nc3nc(N4CCN(CCO)CC4)oc3cc2C(=O)Nc2cccc(-c3cnn(C)c3)n2)CC1", "target_desc": "UniProt Q9NWZ3", "unit_string": "nM", "result_number": 5.1}

Moving on to another compound below.
**Query** Can you share its IC50? I mean this compound: Cn1cc(-c2cccc(NC(=O)c3cc4oc(N5CCOCC5)nc4nc3N3CCC4(CCO4)CC3)n2)cn1
**Result** 4.2

The values you see were collected from patent US20250074919A1.
